Reported IC50 values follow for various molecules
# target-entity: CDK2/cyclin A (Homo sapiens)
# protocol-details: CDK2/cyclin A kinase assay
# reported-conditions: 15 μM ATP, 30° C., histone H1; read-out: IC50 CDK2/cyclinA
Numeric answer only, unit nM assumed.

Consider the reported IC50 for these molecules:
molecule | target-entity | unit-spec | IC50
Nc1nccc(-c2c[nH]c3nccc(OC4CCCCC4)c23)n1 [Meriolin 17] | CDK2/cyclin A (Homo sapiens) | nM | 2.1
Nc1nccc(-c2c3c(O)ccnc3n3c(N)nccc23)n1 [Variolin B, reference compound] | CDK2/cyclin A (Homo sapiens) | nM | 80
Nc1nccc(-c2c[nH]c3nccc(OCC4CCCCC4)c23)n1 [Meriolin 16] | CDK2/cyclin A (Homo sapiens) | nM | 1.2
CCCCCc1ccnc2[nH]cc(-c3ccnc(N)n3)c12 [Meriolin 19] | CDK2/cyclin A (Homo sapiens) | nM | 195

Fill in the blank: the reported IC50 of Nc1nccc(-c2c[nH]c3nccc(CCc4ccccc4)c23)n1 [Meriolin 22] is ____.
73

Moving on to Nc1nccc(-c2c[nH]c3nccc(-c4ccccc4)c23)n1 [Meriolin 23]
9

Moving on to Nc1nccc(-c2c[nH]c3nccc(OCc4ccccc4)c23)n1 [Meriolin 15]
1.6

Moving on to CCCC#Cc1ccnc2[nH]cc(-c3ccnc(N)n3)c12 [Meriolin 18]
5

----------
# target-entity: GSK-3α/β
# protocol-details: GSK-3α/β kinase assay (GS-1 peptide)
# reported-conditions: 15 μM ATP, 30° C.
Reported IC50 values follow for various compounds
Numeric answer only, unit nM assumed.

compound | unit-spec | endpoint-value
Nc1nccc(-c2c[nH]c3nccc(CCc4ccccc4)c23)n1 [Meriolin 22] | nM | 800
Nc1nccc(-c2c[nH]c3nccc(OCC4CCCCC4)c23)n1 [Meriolin 16] | nM | 6
COc1ccnc2[nH]cc(-c3ccncn3)c12 [Meriolin 14] | nM | 1100

Alright, here's another compound for you.
Fill in the blank: the reported IC50 of Oc1ccnc2[nH]cc(-c3ccncn3)c12 [Meriolin 13] is ____.
1800

----------
# target-entity: CK1δ/ε
# protocol-details: CK1δ/ε kinase assay (CK1-specific peptide)
# reported-conditions: 15 μM ATP, 30° C.
Just so you know, the groups by IC50 go like this: low (below 100 nM), moderate (100 nM to below 1000 nM), high (1000 nM or more)

compound | assigned-label
CCCOc1ccnc2[nH]cc(-c3ccnc(N)n3)c12 | moderate

Which class holds Cn1cc(-c2ccnc(N)n2)c2c(O)ccnc21 ?
high

Moving on to CCCCCc1ccnc2[nH]cc(-c3ccnc(N)n3)c12
high

Moving on to Nc1nccc(-c2c[nH]c3nccc(O)c23)n1
low

Moving on to CC(C)Oc1ccnc2[nH]cc(-c3ccnc(N)n3)c12
moderate

Moving on to Nc1nccc(-c2c[nH]c3nccc(Cl)c23)n1
high

----------
# Tested on: MDA-MB-231 (breast)
# protocol-details: Cell survival, MTS reduction, MDA-MB-231
# Format: cell-based
# reported-conditions: Homo sapiens, forty eight hours after addition, read-out: Survival of the cells (IC50, μM) (MTS reduction) MDA-MB-231 (breast)
Reported IC50 values follow for various compounds
Numeric answer only, unit µM assumed.

compound | target-entity | IC50 (µM)
COc1ccnc2[nH]cc(-c3ccnc(N)n3)c12 [Meriolin 3] | MDA-MB-231 (breast) | 19

Alright, here's another compound for you.
Fill in the blank: the reported IC50 of Nc1nccc(-c2c[nH]c3nccc(O)c23)n1 [Meriolin 2] is ____.
1.8

----------
# target-entity: DYRK1A (Rattus norvegicus)
# protocol-details: DYRK1A kinase assay (myelin basic protein)
# Assay type: biochemical
# reported-conditions: 15 μM ATP, 30° C., myelin basic protein; read-out: IC50 DYRK1A
Reported pIC50 values follow for various molecules
// pIC50: -log10(molar conc.)

Consider the reported pIC50 for these molecules:
molecule | pIC50
CCCC#Cc1ccnc2[nH]cc(-c3ccnc(N)n3)c12 | 7.70
Nc1nccc(-c2c[nH]c3nccc(OC4CCCCC4)c23)n1 | 7.59
Nc1nccc(-c2c[nH]c3nccc(OCc4ccccc4)c23)n1 | 7.40

Write down the reported pIC50 of Nc1nccc(-c2c[nH]c3nccc(OCC4CCCCC4)c23)n1 , test system: DYRK1A (Rattus norvegicus).
7.35

Moving on to COc1ccnc2[nH]cc(-c3ccncn3)c12
6.64

Moving on to Nc1nccc(-c2c[nH]c3nccc(CCc4ccccc4)c23)n1
7.14

Moving on to Cn1cc(-c2ccnc(N)n2)c2c(O)ccnc21
5.92

Moving on to CCOc1ccnc2[nH]cc(-c3ccnc(N)n3)c12
7.49

Moving on to Nc1nccc(-c2c[nH]c3ncccc23)n1 [Meriolin 1, reference compound]
6.89

Moving on to CCCCCc1ccnc2[nH]cc(-c3ccnc(N)n3)c12
7.25

Moving on to Nc1nccc(-c2c[nH]c3nccc(Cl)c23)n1
6.89

Moving on to COc1ccnc2[nH]cc(-c3ccnc(SC)n3)c12 [Meriolin 12, reference compound]
6.00

Moving on to COc1ccnc2[nH]cc(-c3ccnc(N)n3)c12
7.54

Moving on to Nc1nccc(-c2c[nH]c3nccc(O)c23)n1
7.46

Moving on to Nc1nccc(-c2c[nH]c3nccc(-c4ccccc4)c23)n1
7.30

Moving on to CCCOc1ccnc2[nH]cc(-c3ccnc(N)n3)c12
7.43

----------
# target-entity: CDK5/p25 (Homo sapiens)
# Sequence (Q00535 whole entry, species assumed): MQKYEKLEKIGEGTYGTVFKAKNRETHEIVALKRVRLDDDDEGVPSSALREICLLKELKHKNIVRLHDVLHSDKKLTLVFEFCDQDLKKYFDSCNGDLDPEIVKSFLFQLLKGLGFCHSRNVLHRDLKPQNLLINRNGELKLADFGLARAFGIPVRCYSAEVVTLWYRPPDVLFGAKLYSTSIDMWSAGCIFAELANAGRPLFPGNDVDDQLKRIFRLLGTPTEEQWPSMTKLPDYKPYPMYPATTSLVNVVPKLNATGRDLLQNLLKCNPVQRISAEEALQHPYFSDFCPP
# Sequence (Q15078 99-307 partner limits assumed, species assumed): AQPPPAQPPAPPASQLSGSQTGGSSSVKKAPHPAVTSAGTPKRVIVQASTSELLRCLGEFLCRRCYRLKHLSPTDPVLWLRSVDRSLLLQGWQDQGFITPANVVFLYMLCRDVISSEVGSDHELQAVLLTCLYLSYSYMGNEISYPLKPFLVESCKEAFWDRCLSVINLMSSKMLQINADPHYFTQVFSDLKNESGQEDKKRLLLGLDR
# protocol-details: CDK5/p25 kinase assay
# Format: biochemical, mammalian
# reported-conditions: 15 μM ATP, 30° C., histone H1; read-out: IC50 CDK5/p25
# Procedure: CDK5/p25 was reconstituted by mixing equal amounts of recombinant mammalian CDK5 and p25 expressed in E. coli as GST (glutathione S-transferase) fusion protein and purified by affinity chromatography on glutathione-agarose (vectors provided by Doctor L. H. Tsai) (p25 is a truncated version of p35, the 35-kDa CDK5 activator). Its activity was assayed with histone H1 in buffer C as described for CDK1/cyclin B.
Entries whose IC50 is below 7 nM take TRUE; entries at or above 7 nM take FALSE.

I'd appreciate it if you could check whether Nc1nccc(-c2c[nH]c3nccc(OCc4ccccc4)c23)n1 has IC50 smaller than 7 nM.
TRUE

Moving on to CCCC#Cc1ccnc2[nH]cc(-c3ccnc(N)n3)c12
TRUE

Moving on to CCCCCc1ccnc2[nH]cc(-c3ccnc(N)n3)c12
FALSE

----------
Reported log10 of IC50 values follow for various compounds
# target-entity: CDK1/cyclin B
# protocol-details: CDK1/cyclin B kinase assay (histone H1, [γ-33P]-ATP)
# reported-conditions: read-out: IC50 CDK1/cyclin B, 15 μM ATP, 30° C.
Quick note: numbers are log10 of IC50, with µM as the unit.

Consider the reported log10 of IC50 for these compounds:
compound | log10 of IC50
Nc1nccc(-c2c3c(O)ccnc3n3c(N)nccc23)n1 [Variolin B, reference compound] | -1.22
CCOc1ccnc2[nH]cc(-c3ccnc(N)n3)c12 [Meriolin 4] | -2.00
COc1ccnc2c1c(-c1ccnc(N)n1)cn2C [Meriolin 9] | 1.40
CCCCCc1ccnc2[nH]cc(-c3ccnc(N)n3)c12 [Meriolin 19] | -0.46
Nc1nccc(-c2c[nH]c3nccc(OCc4ccccc4)c23)n1 [Meriolin 15] | -2.64

Fill in the blank: the reported log10 of IC50 of COc1ccnc2[nH]cc(-c3ccnc(N)n3)c12 [Meriolin 3] is ____.
-0.77

Moving on to Nc1nccc(-c2c[nH]c3nccc(CCc4ccccc4)c23)n1 [Meriolin 22]
-0.70

Moving on to CC(C)Oc1ccnc2[nH]cc(-c3ccnc(N)n3)c12 [Meriolin 6]
-2.10

Moving on to Nc1nccc(-c2c[nH]c3nccc(OC4CCCCC4)c23)n1 [Meriolin 17]
-2.54

Moving on to COCCOc1ccnc2[nH]cc(-c3ccnc(N)n3)c12 [Meriolin 7]
1.54

Moving on to Nc1nccc(-c2c[nH]c3nccc(-c4ccccc4)c23)n1 [Meriolin 23]
-2.00

Moving on to COc1ccnc2[nH]cc(-c3ccnc(SC)n3)c12 [Meriolin 12, reference compound]
0.26

----------
# target-entity: GSK-3α/β
# protocol-details: GSK-3α/β kinase assay (GS-1 peptide)
# reported-conditions: 15 μM ATP, 30° C.
metric-name: IC50
Give your result as the value with the unit written after it.

Fill in the blank: the reported IC50 of CCCOc1ccnc2[nH]cc(-c3ccnc(N)n3)c12 is ____.
25 nM

Moving on to CCCCCc1ccnc2[nH]cc(-c3ccnc(N)n3)c12
1750 nM

Moving on to Nc1nccc(-c2c3c(O)ccnc3n3c(N)nccc23)n1 [Variolin B, reference compound]
70 nM

Moving on to COc1ccnc2[nH]cc(-c3ccnc(N)n3)c12
230 nM

Moving on to CC(C)Oc1ccnc2[nH]cc(-c3ccnc(N)n3)c12
21 nM

Moving on to Nc1nccc(-c2c[nH]c3nccc(O)c23)n1
400 nM
